Recorded values, source the supplement of paper PMC4862054.

Property: normalised response; scope: individual compounds
Tested on: MDA-MB-231
Assay info: normalised response (% of control), CellTiter-Glo; higher = more viable cells (100 = DMSO, 0 = benzethonium chloride kill control)
Assay setup: incubation time: 72 h
Give your result in % as a bare value.

The following compounds have reported results that may help.
| Compound | Unit of measure | normalised response |
| --- | --- | --- |
| O=C1c2c(O)ccc(O)c2C(=O)c2c(NCCNCCO)ccc(NCCNCCO)c21 [Mitoxantrone] (0.1 nM) | % | 98.9 |
| O=C(Nc1c[nH]nc1-c1nc2ccc(CN3CCOCC3)cc2[nH]1)NC1CC1 [AT9283] (1 nM) | % | 102 |
| CCN(CC)CCNC(=O)c1c(C)[nH]c(/C=C2\C(=O)Nc3ccc(F)cc32)c1C [Sunitinib] (0.1 nM) | % | 106 |
| Cc1cccc(-c2nn3c(c2-c2ccnc4ccc(C(N)=O)cc24)CCC3)n1 [Galunisertib] (1 nM) | % | 105 |
| C[C@]12C=CC(=O)C=C1CC[C@@H]1[C@@H]2[C@@H](O)C[C@@]2(C)[C@H]1CC[C@]2(O)C(=O)CO [Prednisolone] (1 nM) | % | 102 |
| Nc1ccccc1NC(=O)c1ccc(CNc2nccc(-c3cccnc3)n2)cc1 [Mocetinostat] (1 nM) | % | 103 |
| CCCCC/C=C/C=C1/C(=O)C=C[C@@H]1C/C=C\CCCC(=O)O [15D-PGJ2] (80 nM) | % | 101 |
| Nc1cccc2c1CN(C1CCC(=O)NC1=O)C2=O (centres undefined) [Lenalidomide] (10 nM) | % | 97.8 |

Field: next compound
// returns reported normalised response for input CO[C@@H](C(=O)N1Cc2[nH]nc(NC(=O)c3ccc(N4CCN(C)CC4)cc3)c2C1)c1ccccc1 [Danusertib] (1000 nM)
74.7

---

Test system: CAL-51
Assay info: drug sensitivity score (DSS), CellTiter-Blue viability (DSS (AUC-based score)); higher = stronger viability inhibition; extreme values may be limits of the assay
Assay setup: incubation time: 72 h
Parameter: drug sensitivity score

| Compound | Parameter | Value reported |
| --- | --- | --- |
| Nc1nc(=O)c2c([nH]1)NCC(CNc1ccc(C(=O)N[C@@H](CCC(=O)O)C(=O)O)cc1)N2C=O (mixture of isomers) [Folinic acid] | drug sensitivity score | 0 |
| Nc1cccc2c1CN(C1CCC(=O)NC1=O)C2=O (stereo not given) [Lenalidomide] | drug sensitivity score | 0 |
| C[C@]12C=CC(=O)C=C1CC[C@@H]1[C@@H]2[C@@H](O)C[C@@]2(C)[C@H]1CC[C@]2(O)C(=O)CO [Prednisolone] | drug sensitivity score | 0 |
| COc1cc(CCc2cc(NC(=O)c3ccc(N4CC(C)NC(C)C4)cc3)n[nH]2)cc(OC)c1 (stereo not given) [AZD4547] | drug sensitivity score | 2.97 |
| Cc1c(CN2CCN(C(=O)[C@H](C)O)CC2)sc2c(N3CCOCC3)nc(-c3cnc(N)nc3)nc12 [GDC-0980] | drug sensitivity score | 18.9 |

Tell me the measured drug sensitivity score of CC[C@@]1(O)C(=O)OCc2c1cc1n(c2=O)Cc2cc3c(CN(C)C)c(O)ccc3nc2-1 [Topotecan] , please.
5.2

Requested field: drug sensitivity score. Item: COc1ccc(-c2cc3c(C)nc(N)nc3n([C@H]3CC[C@H](OCCO)CC3)c2=O)cn1
21.2

Recorded drug sensitivity score of CO[C@@H](C(=O)N1Cc2[nH]nc(NC(=O)c3ccc(N4CCN(C)CC4)cc3)c2C1)c1ccccc1 [Danusertib] , please.
13.4

So what's the measured drug sensitivity score for this one? O=C(Nc1c[nH]nc1-c1nc2ccc(CN3CCOCC3)cc2[nH]1)NC1CC1 [AT9283]
14

Reported drug sensitivity score for CNC(=O)c1cc(Oc2ccc(NC(=O)Nc3ccc(Cl)c(C(F)(F)F)c3)cc2)ccn1 [Sorafenib] : what is it?
0
